TESTED_ON: IRAK1 (Homo sapiens)
Construct: His-TEV-IRAK1 (194-712); His (N); TEV cleavage site (N)
TEST_METHOD_NOTES: IRAK1 enzymatic assay (ADP-Glo luminescence)
CONDITION_NOTES: purified human recombinant His-TEV-IRAK1 (194-712)
pIC50: −log10 of the molar value.
# pIC50 listing for each entry below

Would you please look over these solved cases?
CC(C)(C)OC(=O)N1CCC(n2/c(=N/C(=O)c3cccc(C(F)(F)F)c3)[nH]c3cc(N4CCOCC4=O)ccc32)CC1 ... < 6.00
CCC(CCO)n1/c(=N/C(=O)c2cccc(C(F)(F)F)c2)[nH]c2cc(N3CCOCC3=O)ccc21 (racemic) ... < 6.00
Cc1cc2c(cc1N1CCOCC1=O)[nH]/c(=N\C(=O)c1cccc(C(F)(F)F)c1)n2CCCO ... 6.00 to 7.00
CC(=O)c1cccc(C(=O)/N=c2\[nH]c3cc(N4CCOCC4=O)ccc3n2CCCO)c1 ... 6.00 to 7.00
O=C(/N=c1\[nH]c2cc(N3CCOCC3=O)ccc2n1CC1(CO)CC1)c1cccc(OC(F)F)c1 ... 6.00 to 7.00

Query :: Return the recorded pIC50 value; entry: `O=C(/N=c1\[nH]c2cc(N3CCOCC3=O)ccc2n1[C@H]1CC[C@@H](CO)CC1)c1cccc(C(F)F)c1`
Result :: ≥ 7.00

Query :: Return the recorded pIC50 value; entry: `O=C(/N=c1\[nH]c2cc(N3CCOCC3=O)ccc2n1CCCO)c1cccc(SC(F)(F)F)c1`
Result :: ≥ 7.00

---

TESTED_ON: IRAK1 (Homo sapiens, UniProt P51617)
Construct: His-TEV-IRAK1 (194-712); His (N); TEV cleavage site (N)
Sequence (P51617 194-712): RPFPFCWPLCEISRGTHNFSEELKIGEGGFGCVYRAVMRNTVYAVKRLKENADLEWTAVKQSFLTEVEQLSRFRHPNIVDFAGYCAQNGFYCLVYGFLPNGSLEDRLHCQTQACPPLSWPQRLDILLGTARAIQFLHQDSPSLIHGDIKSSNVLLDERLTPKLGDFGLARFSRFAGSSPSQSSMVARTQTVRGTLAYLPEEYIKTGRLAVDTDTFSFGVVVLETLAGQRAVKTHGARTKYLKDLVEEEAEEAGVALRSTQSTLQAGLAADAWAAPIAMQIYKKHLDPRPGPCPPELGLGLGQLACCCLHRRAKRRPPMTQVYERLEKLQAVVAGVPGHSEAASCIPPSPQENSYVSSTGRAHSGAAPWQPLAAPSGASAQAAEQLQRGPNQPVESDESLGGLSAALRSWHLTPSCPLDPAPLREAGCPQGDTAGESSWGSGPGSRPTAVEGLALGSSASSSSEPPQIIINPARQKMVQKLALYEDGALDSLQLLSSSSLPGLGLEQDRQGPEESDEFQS
TEST_METHOD_NOTES: IRAK1 enzymatic assay (ADP-Glo luminescence)
CONDITION_NOTES: purified human recombinant His-TEV-IRAK1 (194-712)
Method: IRAK1 is a human purified recombinant enzyme (His-TEV-IRAK1 (194-712)) In this assay, IRAK1 hydrolyses ATP and autophosphorylates. Measurement of IRAK-1 inhibition is performed in 384-well format based on luminescence assay (ADP-Glo™ Kinase Assay from Promega). […] After 20 minutes of incubation at RT, the luminescence signal is measured with a luminometer (PerkinElmer Envision or equivalent reader).
pIC50: −log10 of the molar value.
# pIC50 listing for each entry below

Would you please look over these solved cases?
COc1cc2c(cc1N1CCOCC1=O)[nH]/c(=N\C(=O)c1cccc(C(F)(F)F)c1)n2CCCO [Compound 76] ... ≥ 7.00
O=C(/N=c1\[nH]c2cc(N3CCN(C4CCC4)CC3=O)ccc2n1CCCO)c1cccc(C(F)F)c1 [Compound 184] ... ≥ 7.00

Continue with the next compound.
Query :: Return the recorded pIC50 value; entry: O=C(/N=c1\[nH]c2cc(N3CCOCCC3=O)ccc2n1CCCO)c1cccc(C(F)(F)F)c1 [Compound 192]
Result :: 6.00 to 7.00

---

TESTED_ON: IRAK1 (Homo sapiens, UniProt P51617)
Construct: His-TEV-IRAK1 (194-712); His (N); TEV cleavage site (N)
TEST_METHOD_NOTES: IRAK1 enzymatic assay (ADP-Glo luminescence)
Assay type: biochemical
CONDITION_NOTES: purified human recombinant His-TEV-IRAK1 (194-712)
Procedure: IRAK1 is a human purified recombinant enzyme (His-TEV-IRAK1 (194-712)) In this assay, IRAK1 hydrolyses ATP and autophosphorylates. Measurement of IRAK-1 inhibition is performed in 384-well format based on luminescence assay (ADP-Glo™ Kinase Assay from Promega). […] After 20 minutes of incubation at RT, the luminescence signal is measured with a luminometer (PerkinElmer Envision or equivalent reader).
pIC50: −log10 of the molar value.
MEASURED_ATTRIBUTE: pIC50

Would you please look over these solved cases?
O=C(/N=c1\[nH]c2cc(N3CCOCC3=O)ccc2n1[C@H]1CCCC[C@H]1CO)c1cccc(C(F)F)c1 (racemic) ... 6.00 to 7.00
CC(=O)N1CCC(n2/c(=N/C(=O)c3cccc(C(F)(F)F)c3)[nH]c3cc(N4CCOCC4=O)ccc32)CC1 ... ≥ 7.00
CC(=O)NCc1cccc(C(=O)/N=c2\[nH]c3cc(N4CCOCC4=O)ccc3n2CCCO)c1 ... 6.00 to 7.00

Query :: Return the recorded pIC50 value; entry: `[2H]C([2H])([2H])Oc1cc2c(cc1N1CCCOC1=O)[nH]/c(=N\C(=O)c1cccc(C(F)F)c1)n2CCCO`
Result :: ≥ 7.00

---

TESTED_ON: IRAK1 (Homo sapiens, UniProt P51617)
Construct: His-TEV-IRAK1 (194-712); His (N); TEV cleavage site (N)
TEST_METHOD_NOTES: IRAK1 enzymatic assay (ADP-Glo luminescence)
CONDITION_NOTES: purified human recombinant His-TEV-IRAK1 (194-712)
MEASURED_ATTRIBUTE: IC50

Query :: Write IC50 of O=C(/N=c1\[nH]c2cc(N3CCN(CC(F)(F)F)CC3=O)ccc2n1CCCO)c1cccc(C(F)F)c1 [Compound 113] ; system used: IRAK1 (Homo sapiens, UniProt P51617)
Result :: 100 to 1000 nM

Query :: Write IC50 of O=C(/N=c1\[nH]c2cc(N3CCCCS3(=O)=O)ccc2n1CCCO)c1cccc(C(F)(F)F)c1 [Compound 190] ; system used: IRAK1 (Homo sapiens, UniProt P51617)
Result :: 100 to 1000 nM

---

# pIC50 listing for each entry below
TESTED_ON: IRAK1 (Homo sapiens)
Construct: His-TEV-IRAK1 (194-712); His (N); TEV cleavage site (N)
TEST_METHOD_NOTES: IRAK1 enzymatic assay (ADP-Glo luminescence)
CONDITION_NOTES: purified human recombinant His-TEV-IRAK1 (194-712)
pIC50: −log10 of the molar value.

Would you please look over these solved cases?
O=C(/N=c1\[nH]c2cc(N3CCOCC3=O)ccc2n1CCCO)c1cccc(Br)c1 ... 6.00 to 7.00
O=C(/N=c1\[nH]c2cc(N3CCOCC3=O)ccc2n1CCCO)c1ccc2c(c1)COC2=O ... < 6.00
O=C(/N=c1\[nH]c2cc(N3CCN(CC4CC4)CC3=O)ccc2n1CCCO)c1cccc(C(F)F)c1 ... ≥ 7.00
COc1cc2c(cc1N1CCOCC1=O)[nH]/c(=N\C(=O)c1cccc(C(F)F)c1)n2CC1(CO)CC1 ... ≥ 7.00
CC(C)(F)Cn1/c(=N/C(=O)c2cccc(C(F)(F)F)c2)[nH]c2cc(N3CCCOC3=O)ccc21 ... 6.00 to 7.00

Query :: Return the recorded pIC50 value; entry: `O=C(O)CCCn1/c(=N/C(=O)c2cccc(C(F)F)c2)[nH]c2cc(N3CCCOC3=O)ccc21`
Result :: < 6.00

Query :: Return the recorded pIC50 value; entry: `CC1(C)CN(c2ccc3c(c2)[nH]/c(=N\C(=O)c2cccc(C(F)(F)F)c2)n3CCCO)C(=O)O1`
Result :: 6.00 to 7.00

Query :: Return the recorded pIC50 value; entry: `CC1(C)OCCN(c2ccc3c(c2)[nH]/c(=N\C(=O)c2cccc(C(F)F)c2)n3CCCO)C1=O`
Result :: 6.00 to 7.00

Query :: Return the recorded pIC50 value; entry: `N#Cc1cccc(C(=O)/N=c2\[nH]c3cc(N4CCCOC4=O)ccc3n2CCCO)c1`
Result :: ≥ 7.00

Query :: Return the recorded pIC50 value; entry: `O=C(/N=c1\[nH]c2cc(N3CCOCC3=O)c(F)cc2n1CCCO)c1cccc(C(F)(F)F)c1`
Result :: 6.00 to 7.00

Query :: Return the recorded pIC50 value; entry: `CN1CCCN(c2ccc3c(c2)[nH]/c(=N\C(=O)c2cccc(C(F)(F)F)c2)n3CCCO)C1=O`
Result :: 6.00 to 7.00

Query :: Return the recorded pIC50 value; entry: `O=C(/N=c1\[nH]c2cc(N3CCOCCC3=O)ccc2n1CCCO)c1cccc(C(F)F)c1`
Result :: ≥ 7.00

Query :: Return the recorded pIC50 value; entry: `CN(C)S(=O)(=O)c1cccc(C(=O)/N=c2\[nH]c3cc(N4CCOCC4=O)ccc3n2CCCO)c1`
Result :: 6.00 to 7.00

Query :: Return the recorded pIC50 value; entry: C[S+]([O-])CCCCn1/c(=N/C(=O)c2cccc(C(F)F)c2)[nH]c2cc(N3CCOCC3=O)ccc21 (stereo not drawn)
Result :: 6.00 to 7.00

Query :: Return the recorded pIC50 value; entry: `O=C(/N=c1\[nH]c2cc(N3CCCOC3=O)ccc2n1CC1(F)CCOCC1)c1cccc(C(F)F)c1`
Result :: 6.00 to 7.00
